From: PubChem BioAssay (NCI)

# Tested on: MOLT-4 leukemia
# EXPERIMENT DESCRIPTION: NCI tumour cell line growth inhibition, 48 h
So I've got a bunch of molecules here, and I need their TGI values.

Request: Consider the molecule shown here: O=C1c2ccccc2C(=O)N1CC(CN1C(=O)c2ccccc2C1=O)(C(=O)OCc1ccccc1)C(=O)OCc1ccccc1 What is its recorded TGI?
Response: > 100 µM

Request: Consider the molecule shown here: CCCCN(CCCC)CCCn1cnc2ncccc2c1=O What is its recorded TGI?
Response: > 100 µM

Request: Consider the molecule shown here: CC1(C)N=C(N)N=C(N)N1c1cccc(Br)c1 What is its recorded TGI?
Response: > 100 µM

Request: Consider the molecule shown here: O=c1c(Cl)cc2nc3ccccc3sc-2c1Cl What is its recorded TGI?
Response: > 100 µM

Request: Consider the molecule shown here: CC[C@@]1(CCC(=O)NCCc2c[nH]c3ccccc23)CCC(=O)N2CCc3c([nH]c4ccccc34)[C@H]21 What is its recorded TGI?
Response: 34.4 µM

Request: Consider the molecule shown here: CN(C(=O)c1ccco1)C(=S)N1CCN(c2ccccn2)CC1 What is its recorded TGI?
Response: > 100 µM

Request: Consider the molecule shown here: CCN(CC)CCn1c2ccccc2c(=O)c2c(OC)ccc(OC)c21 What is its recorded TGI?
Response: > 100 µM

Request: Consider the molecule shown here: CN(C)c1ccc2nc(CC(O)(C(F)(F)F)C(F)(F)F)ccc2c1 What is its recorded TGI?
Response: > 10 µM

Request: Consider the molecule shown here: O=Nc1c(O)cc(Nc2cccnc2)c2ccccc12 What is its recorded TGI?
Response: 41.6 µM
